Values were extracted from patent US20150080337A1.

# Tested on: Uromyces appendiculatus
# PROTOCOL_DESCRIPTION: In vivo preventive test on Uromyces appendiculatus (bean rust)
# EXPERIMENTAL_PARAMETERS: 500 ppm of active ingredient; bean plants sprayed 24 hours before contamination; grading 11 days after contamination vs control plants

SMILES	Efficacy / %
Cn1nc(C(F)F)c(C(=O)N(Cc2ccccc2[Si](C)(C)c2cccc3ccccc23)C2CC2)c1F	86
Cn1nc(C(F)F)c(C(=O)N(Cc2ccccc2[Si](C)(C)c2cccs2)C2CC2)c1Cl	71
Cn1cc(C(=O)N(Cc2ccccc2[Si](C)(C)c2ccc(Oc3ccccc3)cc2)C2CC2)c(C(F)F)n1	89
Cn1nc(C(F)F)c(C(=O)N(Cc2ccccc2[Si](C)(C)c2cccs2)C2CC2)c1F	100
Cn1cc(C(=O)N(Cc2ccccc2[Si](C)(C)c2ccccc2)C2CC2)c(C(F)F)n1	93
